# System: U2OS
# ASSAY PROTOCOL: Multiplex assay against U2OS
# Assay type: toxicity, cell-based
# MEASUREMENT CONTEXT: human, 24 h, 1 µM, compound concentration 1 uM, replicate 2
I'd be grateful if you could share measured Population Pyknosed Nuclei (%) for these entries.

input: Given the entry CC(=O)NCCc1c(Cc2ccccc2)[nH]c2ccccc12 [LUZINDOLE] , report its measured Population Pyknosed Nuclei (%).
output: 10%

input: // same read-out, input: Cc1ccc(-c2ccc(F)cc2COc2ccc(CCC(=O)O)cc2)cc1
output: 8%

input: Would you mind doing CN1CCN2c3ncccc3Cc3ccccc3C2C1 (stereo unspecified) [MIRTAZAPINE] as well?
output: 10%

input: How about c1cc(OCCCN2CCCCC2)ccc1CN1CCCCC1 [JNJ-5207852] ?
output: 10%

input: Field entry: O=C(O)c1cc2ccccc2c(Cc2c(O)c(C(=O)O)cc3ccccc23)c1O [PAMOIC ACID]
output: 9%

input: Cool, now Cc1ccc(/C(=C\CN2CCCC2)c2ccccn2)cc1 [TRIPROLIDINE]
output: 11%

----------
Provide the recorded Population Hoechst High Intensity Objects (%) for the entries that follow.
# System: Fibroblast
# ASSAY PROTOCOL: Multiplex assay against human fibroblast
# Assay type: toxicity, cell-based
# MEASUREMENT CONTEXT: 12 h, 10 µM, compound concentration 10 uM, replicate 2
Hi! Could you send only the number? It should be in %, unit omitted.

input: Can you share its Population Hoechst High Intensity Objects (%)? I mean this molecule: O=C(O)Cc1ccccc1Nc1c(Cl)cccc1Cl [DICLOFENAC]
output: 6

input: Now the molecule C[C@@H]1C[C@H]2[C@@H]3CCC4=CC(=O)C=C[C@]4(C)[C@@]3(F)[C@@H](O)C[C@]2(C)[C@@]1(O)C(=O)CO [DEXAMETHASONE]
output: 6

input: What do you have for CNC[C@H](O)c1ccc(O)c(O)c1 [EPINEPHRINE] ?
output: 7

input: Item: CCOc1c2c(c(OCC)c3ncccc13)CN(c1ccc(CS(=O)(=O)NC(=O)Cc3ccccc3OC)cc1C)C2=O
output: 3

input: Also Cc1ccc(C(C)(O)c2nc3ccccc3s2)c(C)c1 (stereo not given) ?
output: 7

----------
# Test system: Fibroblast
# ASSAY PROTOCOL: Multiplex assay against human fibroblast
# Type: toxicity, cell-based
# MEASUREMENT CONTEXT: 48 h, 1 µM, compound concentration 1 uM, replicate 1
If the reported Population Fragmented Nuclei (%) equals or exceeds 20%, assign label 1. If not, assign label 0.

input: Could you please find out whether COc1ccc2c(c1)C(C(=O)N(Cc1ccc(N(C)C)cc1)c1ccc(C(C)C)cc1)CCC2.Cl (configuration not stated) has Population Fragmented Nuclei (%) that meets 20% or exceeds it?
output: label 0

input: For CN(C)c1ccnc2sc3c(=O)n(N4CCCCCC4)cnc3c12 then?
output: label 0

input: Repeat for the following compound: O=S(=O)(c1ccccc1)c1cnc2c(N3CCNCC3)cccc2c1 [INTEPIRDINE]
output: label 1

input: Now try CN(C)CCCc1cc(C(=O)Nc2ccc(-c3ccncc3)cc2)ccc1O.Cl.Cl .
output: label 1

input: Check Cc1ccc(/C(=C\CN2CCCC2)c2ccccn2)cc1 too.
output: label 1

input: Try this compound too: Cc1ccccc1C(=O)Nc1ccc(C(=O)N2CCCC(N(C)C)c3ccccc32)cc1.Cl (configuration not stated)
output: label 0

input: Moving on to the next compound: COc1c(C)cc(NC(=O)c2nn(Cc3ccc(F)cc3)c3c2CN(C(=O)c2ccc[nH]2)C[C@]3(C)C(N)=O)cc1C
output: label 1

input: Repeat with CC[C@H]1OC(=O)[C@H](C)[C@@H](O[C@H]2C[C@@](C)(OC)[C@@H](O)[C@H](C)O2)[C@H](C)[C@@H](O[C@@H]2O[C@H](C)C[C@H](N(C)C)[C@H]2O)[C@@]2(C)CC(C)=C(O2)[C@H](C)[C@@H](O)[C@]1(C)O
output: label 0

input: Entry to check: N#Cc1c(N)nc(SCc2csc(-c3ccc(Cl)cc3)n2)c(C#N)c1-c1ccc(OCCO)cc1
output: label 0

input: // repeat for Oc1c(CN2CCN(c3ccccn3)CC2)cc(Cl)c2cccnc12 and report
output: label 0

input: Repeat for the following compound: CN1CCN(c2nc3cc(C(F)(F)F)ccc3n3cccc23)CC1.O=C(O)/C=C\C(=O)O.O=C(O)/C=C\C(=O)O
output: label 1

input: // same read-out, input: CCCn1c(=O)c2[nH]c(C3CCCC3)nc2n(CCC)c1=O
output: label 0

input: Now try CC(=O)NCCc1c(Cc2ccccc2)[nH]c2ccccc12 .
output: label 0

input: // next record CCCN1CCC[C@@H]2Cc3n[nH]cc3C[C@H]21.Cl [QUINPIROLE HYDROCHLORIDE]
output: label 1

input: Do the same for CC(C)(C)c1ccc(S(=O)(=O)Nc2ccc(Cl)cc2C(=O)c2cc[n+]([O-])cc2)cc1 please
output: label 1

input: What about Cl.Clc1ccc2nsnc2c1NC1=NCCN1 [TIZANIDINE HYDROCHLORIDE] ?
output: label 0

input: Please give the result for O=C1COc2nccc(-c3ccccc3F)c2CN1Cc1cc(C(F)(F)F)cc(C(F)(F)F)c1 too.
output: label 0

----------
# Tested on: Fibroblast
# ASSAY PROTOCOL: Multiplex assay against human fibroblast
# Type: toxicity, cell-based
# MEASUREMENT CONTEXT: 12 h, 10 µM, compound concentration 10 uM, replicate 2
So I've got a bunch of molecules here, and I need their Population Healthy Nuclei (%) values.
The figure you give is taken to be in %; do not add the unit.

input: Name the reported Population Healthy Nuclei (%) value associated with the molecule c1cc(OCCCN2CCCCC2)ccc1CN1CCCCC1
output: 42

input: Same read-out for Cc1ccccc1C(=O)Nc1ccc(C(=O)N2CCCC(N(C)C)c3ccccc32)cc1.Cl (centres undefined) ?
output: 47

input: And for CCCC(CCC)C(=O)O ?
output: 53

input: Ok, now CN1CCN2c3ncccc3Cc3ccccc3C2C1 (centres undefined)
output: 40

input: Field entry: Oc1c(CN2CCN(c3ccccn3)CC2)cc(Cl)c2cccnc12
output: 58

input: Similarly, N#Cc1c(N)nc(SCc2csc(-c3ccc(Cl)cc3)n2)c(C#N)c1-c1ccc(OCCO)cc1 ?
output: 29

input: What about this molecule? CC1(COc2ccc3c(c2)ncn3-c2ccc3cccc(N4CCC(N)CC4)c3n2)COC1
output: 40

input: Cool, now CC(C)(C)c1ccc(S(=O)(=O)Nc2ccc(Cl)cc2C(=O)c2cc[n+]([O-])cc2)cc1
output: 44

input: Now give it for C[C@@H]1C[C@H]2[C@@H]3CCC4=CC(=O)C=C[C@]4(C)[C@@]3(F)[C@@H](O)C[C@]2(C)[C@@]1(O)C(=O)CO too.
output: 52

----------
Assignment: determine reported Population Mitochondria Different-Phenotype (%) for the given compounds.
# System: Fibroblast
# ASSAY PROTOCOL: Multiplex assay against human fibroblast
# Format: toxicity, cell-based
# MEASUREMENT CONTEXT: 12 h, 10 µM, compound concentration 10 uM, replicate 1
Write the answer as a number in %, unit excluded.

input: Could you tell me which Population Mitochondria Different-Phenotype (%) is on file for CCCn1c(=O)c2[nH]c(C3CCCC3)nc2n(CCC)c1=O ?
output: 10

input: Input c1cc(OCCCN2CCCCC2)ccc1CN1CCCCC1
output: 6

input: Note, next up: CCOc1c2c(c(OCC)c3ncccc13)CN(c1ccc(CS(=O)(=O)NC(=O)Cc3ccccc3OC)cc1C)C2=O
output: 6

input: Input Cc1nc2ccc(Oc3ccc(F)cc3)cc2c(=O)n1C[C@H]1CCCN(C(C)C)C1.Cl
output: 22

input: Another compound to check: Oc1c(CN2CCN(c3ccccn3)CC2)cc(Cl)c2cccnc12
output: 25

----------
# Test system: Fibroblast
# ASSAY PROTOCOL: Multiplex assay against human fibroblast
# Format: toxicity, cell-based
# MEASUREMENT CONTEXT: 48 h, 10 µM, compound concentration 10 uM, replicate 2
Outcome: yes for Population Mitotic Cells (%) of at least 40%; no for anything lower.

input: Can C[C@H]1[C@H]2CC[C@H]3[C@@H]4CC=C5C[C@@H](N(C)C)CC[C@]5(C)[C@H]4CC[C@]23CN1C [CONESSINE] be said to have Population Mitotic Cells (%) at or above 40%?
output: yes

input: Same again, this time with N#Cc1c(N)nc(SCc2csc(-c3ccc(Cl)cc3)n2)c(C#N)c1-c1ccc(OCCO)cc1 [CAPADENOSON]
output: yes

input: Try this molecule next: Cl.Clc1ccc2nsnc2c1NC1=NCCN1 [TIZANIDINE HYDROCHLORIDE]
output: no

input: Try this molecule next: COc1c(C)cc(NC(=O)c2nn(Cc3ccc(F)cc3)c3c2CN(C(=O)c2ccc[nH]2)C[C@]3(C)C(N)=O)cc1C
output: no

input: # iterate: CN(C)CCCc1cc(C(=O)Nc2ccc(-c3ccncc3)cc2)ccc1O.Cl.Cl
output: yes

input: Also need CN1CCN(c2nc3cc(C(F)(F)F)ccc3n3cccc23)CC1.O=C(O)/C=C\C(=O)O.O=C(O)/C=C\C(=O)O , thanks.
output: no

input: Continue with COc1ccc2c(c1)C(C(=O)N(Cc1ccc(N(C)C)cc1)c1ccc(C(C)C)cc1)CCC2.Cl (stereo not given)
output: no

input: // query: O=S(=O)(c1ccccc1)c1cnc2c(N3CCNCC3)cccc2c1 [INTEPIRDINE]
output: yes

input: And O=C(NCC(=O)N1CC[C@H](N[C@H]2CC[C@@](O)(c3ccc(-c4ncccn4)cn3)CC2)C1)c1cccc(C(F)(F)F)c1 [PF-4136309] ?
output: no

input: Let us now turn to CCOc1c2c(c(OCC)c3ncccc13)CN(c1ccc(CS(=O)(=O)NC(=O)Cc3ccccc3OC)cc1C)C2=O
output: yes

input: For CN1CCN2c3ncccc3Cc3ccccc3C2C1 (stereo not given) [MIRTAZAPINE] then?
output: yes

input: Same again, this time with Cc1nc2ccc(Oc3ccc(F)cc3)cc2c(=O)n1C[C@H]1CCCN(C(C)C)C1.Cl
output: no

input: Field entry: CN(C)c1ccnc2sc3c(=O)n(N4CCCCCC4)cnc3c12
output: yes
